All figures here come from ChEMBL document CHEMBL5058577.

test system: HEK-293T; experiment: Multiplex assay against HEK293T; type: toxicity, cell-based; conditions: human, 12 h, 10 µM, compound concentration 10 uM, replicate 1
Quantity Measured: Population Healthy Nuclei (%)
Number only, in %; omit the unit.

Reported Population Healthy Nuclei (%) for C[C@@H]1C[C@H]2[C@@H]3CCC4=CC(=O)C=C[C@]4(C)[C@@]3(F)[C@@H](O)C[C@]2(C)[C@@]1(O)C(=O)CO [DEXAMETHASONE] : what is it?
79

How about O=C(NCCO)c1cccc(-c2cc(Nc3ccc(OC(F)(F)F)cc3)ncn2)c1 ?
76

How about C[C@H]1[C@H]2CC[C@H]3[C@@H]4CC=C5C[C@@H](N(C)C)CC[C@]5(C)[C@H]4CC[C@]23CN1C [CONESSINE] ?
77

How about COc1ccccc1N1CCN(CCCCNC(=O)c2ccc3ccccc3c2)CC1.Cl ?
69

How about CN(C)c1ccnc2sc3c(=O)n(N4CCCCCC4)cnc3c12 ?
81
